Kindly supply the reported 50 nM SRA + 5 uM apoL1 peptide binding (RU) values for the records listed here.
Target: T1, serum resistance-associated protein (SRA) from Trypanosoma brucei rhodesiense, recombinant SRA (SEQ ID NO: … (Trypanosoma brucei rhodesiense, UniProt O96637 31-274))
T1 construct: also called SRA protein
T1 sequence: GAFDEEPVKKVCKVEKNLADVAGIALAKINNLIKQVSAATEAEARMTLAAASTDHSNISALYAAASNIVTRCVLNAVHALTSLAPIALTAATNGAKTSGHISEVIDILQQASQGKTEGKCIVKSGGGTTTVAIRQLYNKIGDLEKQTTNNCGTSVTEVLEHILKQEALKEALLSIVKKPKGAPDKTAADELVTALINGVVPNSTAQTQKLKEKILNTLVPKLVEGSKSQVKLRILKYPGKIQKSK
Assay: SPR, mAb captured, pH 4.5, 25C; competitor biotin-apoL1 peptide
One number for each entry, in RU.

See these solved cases before continuing.
[
  {
    "binder": "H1H10064P (antibody, V domains shown, Fully human antibody with human IgG1 Fc (prefix H1H)) VH: QVQLVQSGAEVKKPGSSVKVSCKASGGSFSSNVFSWVRQAPGQGLEWMGGIIPIFGSANYAQKFQGRVTITTDESTTTAYMELSSLRSEDTAVYYCAIGGTGPSGYNWNYGAFYIWGQGTMVTVSS VL: DIQMTQSPSSLSASVGDRVTITCRASQGIRNDLGWYQQKPGIAPKRLIYAASSLQSGVPSRFSGSGSGTEFTLTISSLQPEDFATYYCLQHNSYPYTFGQGTKLEIK",
    "observed_result": -11
  },
  {
    "binder": "H1H10058P (antibody, V domains shown, Fully human antibody with human IgG1 Fc (prefix H1H)) VH: EVQLVESGGGLVQPGGSLRLSCAASGFTFNDFFMSWVRQAPGKGLEWVANLNQDGSERHYVDSVKGRFTISRDNAKNSLSLQMNSLRVEDTAVYYCAREGGDSWGQGTLVTVSS VL: DIVMTQSPDSLAVSLGERVTINCKSSQSILYSANNKDYLAWFHQKPGQPPKLLIYWASIRESGVPDRISGSGSGTDFTLTISSLQAEDVAVYYCQQYYLFPPTFGQGTKVEIK",
    "observed_result": 57
  }
]

Now turn to the next binder.
Fill in the blank: the reported 50 nM SRA + 5 uM apoL1 peptide binding (RU) of H2aM10200N (antibody, V domains shown, Hybridoma-derived chimeric antibody, human variable domains and mouse constant domains (mouse Fc, prefix H2aM); also called H2M10200N) VH: QVQLVQSGAEVKKPGSSVKVSCKASGGTFSSYAISWVRQAPGQGLEWMGGIIPFFGTATYAQKFQGRVTITTDESTRTVYMELSSLRYEDTAVYYCARWYSGYGGDFDYWGQGTLVTVSS VL: AIQMTQSPSSLSASVGDRVTITCRASQGIRNDLGWFQQKPGKAPKLLIYAASSLQSGVPSRFSGSGSGTDFTLSISSLQPEDFATYYCLQDYSYPRTFGQGTKVEIK is ____.
-2
